Where do these numbers come from? They come from paper PMC2493416.

targetOrTestSystem: N-methyl-D-aspartate receptor (NMDAR) NR1/NR2B (Homo sapiens, UniProt Q05586+Q13224)
Sequence (Q13224 27-1484, other chains not shown): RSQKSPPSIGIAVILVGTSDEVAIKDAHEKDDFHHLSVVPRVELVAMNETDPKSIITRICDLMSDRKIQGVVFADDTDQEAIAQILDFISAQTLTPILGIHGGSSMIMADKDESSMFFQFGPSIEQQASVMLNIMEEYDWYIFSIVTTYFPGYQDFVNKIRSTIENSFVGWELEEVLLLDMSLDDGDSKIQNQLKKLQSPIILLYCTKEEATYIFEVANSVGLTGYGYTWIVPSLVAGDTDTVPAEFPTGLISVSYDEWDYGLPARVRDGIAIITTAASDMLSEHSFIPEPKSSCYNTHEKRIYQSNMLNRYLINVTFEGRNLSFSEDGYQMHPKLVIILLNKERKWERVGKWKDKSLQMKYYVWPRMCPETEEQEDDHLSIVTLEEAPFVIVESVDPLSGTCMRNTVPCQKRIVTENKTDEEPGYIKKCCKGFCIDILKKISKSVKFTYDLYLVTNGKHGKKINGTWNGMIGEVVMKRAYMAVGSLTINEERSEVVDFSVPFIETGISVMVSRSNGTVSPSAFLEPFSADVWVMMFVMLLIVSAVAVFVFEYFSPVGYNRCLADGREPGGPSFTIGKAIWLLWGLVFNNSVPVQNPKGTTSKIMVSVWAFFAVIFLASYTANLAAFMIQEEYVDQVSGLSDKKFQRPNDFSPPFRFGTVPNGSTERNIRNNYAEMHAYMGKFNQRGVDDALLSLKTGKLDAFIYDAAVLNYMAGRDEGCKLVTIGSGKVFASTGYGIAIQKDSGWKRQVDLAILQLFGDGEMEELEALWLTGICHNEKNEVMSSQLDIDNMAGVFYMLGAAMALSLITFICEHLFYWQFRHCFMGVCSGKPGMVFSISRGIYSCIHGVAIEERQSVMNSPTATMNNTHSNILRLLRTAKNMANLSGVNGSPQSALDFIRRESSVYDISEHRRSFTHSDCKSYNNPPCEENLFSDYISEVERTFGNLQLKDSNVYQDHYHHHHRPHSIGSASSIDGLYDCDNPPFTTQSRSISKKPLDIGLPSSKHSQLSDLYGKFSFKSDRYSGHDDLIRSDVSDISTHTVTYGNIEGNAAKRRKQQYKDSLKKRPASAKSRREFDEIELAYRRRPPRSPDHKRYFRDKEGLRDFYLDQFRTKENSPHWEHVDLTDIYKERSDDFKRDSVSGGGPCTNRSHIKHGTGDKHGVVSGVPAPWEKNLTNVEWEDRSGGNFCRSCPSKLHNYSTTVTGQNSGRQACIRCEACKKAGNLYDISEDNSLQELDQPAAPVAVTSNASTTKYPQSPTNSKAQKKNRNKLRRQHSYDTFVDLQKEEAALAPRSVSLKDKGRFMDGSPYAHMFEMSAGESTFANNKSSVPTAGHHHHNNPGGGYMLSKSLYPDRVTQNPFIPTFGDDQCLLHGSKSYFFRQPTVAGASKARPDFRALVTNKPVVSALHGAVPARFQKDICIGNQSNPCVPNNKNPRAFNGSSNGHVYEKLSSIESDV
assayOverview: two-electrode voltage clamp in oocytes, inhibition concentration-response
pIC50: −log10 of the molar value.
readoutName: pIC50

>>> valuemeasured("FC(F)OC(Cl)C(F)(F)F (centres unmarked)")
2.62
>>> valuemeasured("c1ccccc1")
3.47
